These data points were gathered from ChEMBL document CHEMBL3991601.

# target desc: Tyrosine-protein kinase Fyn (Homo sapiens, UniProt P06241); note: in the data inactive means no Kd found up to 30 µM
# Sequence (P06241 whole entry): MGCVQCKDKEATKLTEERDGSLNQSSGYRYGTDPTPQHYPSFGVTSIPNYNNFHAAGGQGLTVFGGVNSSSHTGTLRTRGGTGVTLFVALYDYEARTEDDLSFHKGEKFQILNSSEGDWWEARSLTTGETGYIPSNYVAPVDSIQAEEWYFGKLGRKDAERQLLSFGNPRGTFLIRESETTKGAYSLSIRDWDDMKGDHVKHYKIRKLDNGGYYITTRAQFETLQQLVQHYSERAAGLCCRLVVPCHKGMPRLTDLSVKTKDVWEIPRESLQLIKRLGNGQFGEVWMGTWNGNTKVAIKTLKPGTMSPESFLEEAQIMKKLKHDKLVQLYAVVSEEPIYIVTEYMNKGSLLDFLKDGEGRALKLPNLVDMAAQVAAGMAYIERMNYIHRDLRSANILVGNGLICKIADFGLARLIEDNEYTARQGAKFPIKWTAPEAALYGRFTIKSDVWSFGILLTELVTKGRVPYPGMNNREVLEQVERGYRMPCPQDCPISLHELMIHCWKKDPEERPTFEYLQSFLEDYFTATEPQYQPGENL
Active and inactive are the calls of the source.
Result category, one only: T (active), F (inactive)

Recorded results for 4 molecules are shown here.
Prompt: Identify the outcome logged in this assay for the molecule shown: O=C(Cc1ccc(-c2ccc(OCCN3CCOCC3)cc2)cn1)NCc1ccccc1
Response: F

Prompt: // next record Cc1cc(Nc2ncnc3ccc(NC4=NC(C)(C)CO4)cc23)ccc1Oc1ccn2ncnc2c1
Response: F

Prompt: // next record CC(C)c1cc(CNc2nc(Nc3cc(C4CC4)[nH]n3)cc(N3CCN(C)CC3)n2)on1
Response: T

Prompt: // next record C[C@@H](Oc1cc(C(=O)Nc2ccc(C(=O)N3CCN(C)CC3)cc2)nnc1N)c1c(Cl)ccc(F)c1Cl
Response: F

We now examine a further molecule.
Prompt: Identify the outcome logged in this assay for the molecule shown: Cc1cc(C(=O)NOCCO)c(Nc2ccc(I)cc2F)n(C)c1=O
Response: F
